test target: T1, full-length Sudan GP (GPFL) (Sudan virus (SUDV), UniProt Q7T9D9 33-650)
T1 construct: also called Sudan GPFL; GP(S)FL
T1 sequence: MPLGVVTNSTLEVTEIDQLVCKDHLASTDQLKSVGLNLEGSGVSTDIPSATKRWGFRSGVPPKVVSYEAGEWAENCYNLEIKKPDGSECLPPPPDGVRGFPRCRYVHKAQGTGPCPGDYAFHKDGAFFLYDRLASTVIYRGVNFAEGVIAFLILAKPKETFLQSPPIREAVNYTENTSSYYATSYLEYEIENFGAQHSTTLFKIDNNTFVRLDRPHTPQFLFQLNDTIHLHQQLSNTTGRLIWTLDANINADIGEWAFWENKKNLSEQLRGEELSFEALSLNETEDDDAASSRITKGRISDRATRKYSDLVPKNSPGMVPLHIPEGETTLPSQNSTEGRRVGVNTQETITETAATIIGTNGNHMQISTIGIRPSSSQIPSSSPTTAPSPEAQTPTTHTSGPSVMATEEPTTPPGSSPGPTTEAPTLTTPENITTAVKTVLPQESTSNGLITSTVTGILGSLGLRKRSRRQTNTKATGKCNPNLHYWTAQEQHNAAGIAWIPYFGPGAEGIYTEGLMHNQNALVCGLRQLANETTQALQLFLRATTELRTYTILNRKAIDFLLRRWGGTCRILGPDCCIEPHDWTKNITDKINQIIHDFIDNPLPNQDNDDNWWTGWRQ
test summary: BLI, Fab, pH 5.3
pKd: −log10 of the molar value.
observable: pKd

# binder, value measured
rows = [
    ("Fab generated from 503S (Fab, V domains shown, also called 503S Fab) VH: QVQLVQSGAEVKKPGASVRVSCKASGYTFTSYYMHWVRQAPGQGLEWMGQINPSGGTTRYERKFQGRITVTRDTSTSTVYLELSSLRSEDTASYFCACLRDKVTYYDLWSGVDSVWGQGTLVTVSS VL: DIQMTQSPSSLSASVGDRVTITCRASQDISTWLAWYQQKPEKAPKSLIYAASTLETGVPSRFSGSGSGTDFTLTISSLQPEDFATYYCEQYNGFPRTFGQGTKLDIK", 8.18),
    ("Fab generated from 523S (Fab, V domains shown, also called 523S Fab) VH: QVQLVQSGAELKKPGASVKVSCKASGYTFSDHYVHWVRQAPGQGLEWMGRINPNSGGTNYAQRFLGRVTMTRDASISTAYLDLSSLRSDDTAVYYCARSSSSWSGHYYYYMDVWGKGTTVTVSS VL: QSVLTQPPSVSAAPGQRVTISCSGSTSNIASNFVSWYQQLPGTAPKLLIYDNHKRPSGIPDRFSGSKSGTSATLGITGLQTGDEADYYCGTWDSSLSAGVFGGGTKVTVL", 8.80),
    ("Fab generated from 354S (Fab, V domains shown, also called 354S Fab) VH: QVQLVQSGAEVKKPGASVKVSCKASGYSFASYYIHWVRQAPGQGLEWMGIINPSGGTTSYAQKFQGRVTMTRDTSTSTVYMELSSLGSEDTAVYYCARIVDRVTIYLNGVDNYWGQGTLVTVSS VL: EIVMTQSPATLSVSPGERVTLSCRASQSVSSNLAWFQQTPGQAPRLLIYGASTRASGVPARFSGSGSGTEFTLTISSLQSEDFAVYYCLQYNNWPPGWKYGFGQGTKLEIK", 8.21),
    ("Fab generated from 541S (Fab, V domains shown, also called 541S Fab) VH: QVQLVQSGAEVKKPGASVKVSCKASGYTFTNYAITWVRQAPGQGLEWMGWISAFNGQINYAQKFQGRVAMTTDTSTSTAYMELRSLRSDDTAVYYCARAPPMWFSGAKFDYWGQGTLVTVSS VL: QSVLTQPPSVSGTPGQRVTISCSGSSSNIGSNTVNWYQQLPGTAPKLLIYSNDQRPSGVPDRFSGSKSGTSASLAISGLRSEDEADYYCAAWDETLRRVFGGGTRLTVL", 7.35),
    ("Fab generated from 233S (Fab, V domains shown) VH: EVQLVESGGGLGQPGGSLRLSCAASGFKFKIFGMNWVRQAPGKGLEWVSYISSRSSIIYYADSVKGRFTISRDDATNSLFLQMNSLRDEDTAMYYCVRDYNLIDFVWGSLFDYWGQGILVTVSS VL: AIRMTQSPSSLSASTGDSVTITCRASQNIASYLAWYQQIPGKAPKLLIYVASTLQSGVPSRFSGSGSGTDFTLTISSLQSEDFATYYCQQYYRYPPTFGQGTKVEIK", 8.12),
]
